Would you kindly list inhibition at 30 µM for each of these molecules?
System: A2780 cells
measurement description: MTT antiproliferative assay, A2780
Assay type: cell-based, human
run parameters: Homo sapiens; A2780, 30 µM, 72 h, MTT; read-out: Inhibition (%) ± SEM
One number for each entry, in %.

molecule	endpoint	measurement units	observed measurement
C[C@@]12CC[C@@H]3c4cc(Br)c(OCc5cn(Cc6ccccc6)nn5)cc4CC[C@H]3[C@@H]1CCC2=O [Compound 11a]	inhibition at 30 µM	%	52

Would you be so kind as to report inhibition at 30 µM for each listed record?
1. C[C@@]12CC[C@@H]3c4ccc(OCc5cn(Cc6ccccc6)nn5)c(Br)c4CC[C@H]3[C@@H]1CCC2=O [Compound 12a]
2. CC(C)(C)c1ccc(Cn2cc(COc3cc4c(cc3Br)[C@H]3CC[C@@]5(C)C(=O)CC[C@H]5[C@@H]3CC4)nn2)cc1 [Compound 11b]
3. CC(C)(C)c1ccc(Cn2cc(COc3ccc4c(c3Br)CC[C@@H]3[C@@H]4CC[C@@]4(C)C(=O)CC[C@@H]34)nn2)cc1 [Compound 12b]

OUT:
1. 95.4
2. 33.9
3. 54.7

* * *

System: MCF-7 cells
measurement description: MTT antiproliferative assay, MCF-7
Format: cell-based, human
run parameters: Homo sapiens, MCF7, 72 h, read-out: Inhibition (%) ± SEM
Label rule, in plain words: inhibition at 10 µM of 70% and up is Fulfilled, under 70% is Not fulfilled.

compound	group
C[C@@]12CC[C@@H]3c4cc(P(=O)(c5ccccc5)c5ccccc5)c(OCc5cn(Cc6ccccc6)nn5)cc4CC[C@H]3[C@@H]1CCC2=O [Compound 14a]	Not fulfilled

IN: Entry CCOP(=O)(OCC)c1cc2c(cc1OCc1cn(Cc3ccccc3)nn1)CC[C@@H]1[C@@H]2CC[C@@]2(C)C(=O)CC[C@@H]12 [Compound 13a] : is its inhibition at 10 µM no less than 70%?
OUT: Not fulfilled

IN: Quick check: does CC(C)(C)c1ccc(Cn2cc(COc3cc4c(cc3P(=O)(c3ccccc3)c3ccccc3)[C@H]3CC[C@@]5(C)C(=O)CC[C@H]5[C@@H]3CC4)nn2)cc1 [Compound 14b] have inhibition at 10 µM greater than or equal to 70%?
OUT: Fulfilled

IN: Given the entry CCOP(=O)(OCC)c1cc2c(cc1OCc1cn(Cc3ccc(C(C)(C)C)cc3)nn1)CC[C@@H]1[C@@H]2CC[C@@]2(C)C(=O)CC[C@@H]12 [Compound 13b] , answer whether its inhibition at 10 µM meets or surpasses 70%.
OUT: Fulfilled

IN: Can CCOP(=O)(OCC)c1c(OCc2cn(Cc3ccccc3)nn2)ccc2c1CC[C@@H]1[C@@H]2CC[C@@]2(C)C(=O)CC[C@@H]12 [Compound 15a] be said to have inhibition at 10 µM at or above 70%?
OUT: Not fulfilled

IN: I'd appreciate it if you could say whether CCOP(=O)(OCC)c1c(OCc2cn(Cc3ccc(C(C)(C)C)cc3)nn2)ccc2c1CC[C@@H]1[C@@H]2CC[C@@]2(C)C(=O)CC[C@@H]12 [Compound 15b] has inhibition at 10 µM at least equal to 70%.
OUT: Not fulfilled

* * *

System: MDA-MB-231 cells
measurement description: MTT antiproliferative assay, MDA-MB-231
Type: cell-based, human
run parameters: Homo sapiens; MDA-MB-231, 10 µM, 72 h, MTT; read-out: Inhibition (%) ± SEM
endpoint: inhibition at 10 µM (%)
One number for each entry, in %.

compound	target system	inhibition at 10 µM, %
C[C@@]12CC[C@@H]3c4ccc(OCc5cn(Cc6ccccc6)nn5)c(Br)c4CC[C@H]3[C@@H]1CCC2=O [Compound 12a]	MDA-MB-231 cells	52.9
CC(C)(C)c1ccc(Cn2cc(COc3cc4c(cc3Br)[C@H]3CC[C@@]5(C)C(=O)CC[C@H]5[C@@H]3CC4)nn2)cc1 [Compound 11b]	MDA-MB-231 cells	24.4

Next compound, please.
IN: Name the reported inhibition at 10 µM value associated with the compound C[C@@]12CC[C@@H]3c4cc(Br)c(OCc5cn(Cc6ccccc6)nn5)cc4CC[C@H]3[C@@H]1CCC2=O [Compound 11a]
OUT: 47.5

* * *

Answer each item with its documented inhibition at 30 µM.
Test system: MDA-MB-231 cells
measurement description: MTT antiproliferative assay, MDA-MB-231
Type: cell-based, human
run parameters: Homo sapiens; MDA-MB-231, 30 µM, 72 h, MTT; read-out: Inhibition (%) ± SEM
Answers are plain numbers, in %.

Consider the following illustrative entries.
compound	inhibition at 30 µM / %
CC(C)(C)c1ccc(Cn2cc(COc3cc4c(cc3Br)[C@H]3CC[C@@]5(C)C(=O)CC[C@H]5[C@@H]3CC4)nn2)cc1 [Compound 11b]	23.9
C[C@@]12CC[C@@H]3c4ccc(OCc5cn(Cc6ccccc6)nn5)c(Br)c4CC[C@H]3[C@@H]1CCC2=O [Compound 12a]	53.8

Let us examine a further case.
IN: Quick one: inhibition at 30 µM of C[C@@]12CC[C@@H]3c4cc(Br)c(OCc5cn(Cc6ccccc6)nn5)cc4CC[C@H]3[C@@H]1CCC2=O [Compound 11a] ?
OUT: 38.2

* * *

Test system: MCF-7 cells
measurement description: MTT antiproliferative assay, MCF-7
Format: cell-based, human
run parameters: Homo sapiens, MCF7, 72 h, read-out: Inhibition (%) ± SEM
Method: The antiproliferative properties of the newly synthesised triazoles (11a,b–15a,b) were determined on a panel of human adherent cancer cell lines of gynaecological origin. MCF-7 and MDA-MB-231 were isolated from breast cancers differing in biochemical background, while A2780 cells were isolated from ovarian cancer. […] Finally, the reduced MTT was assayed at 545 nm, using a microplate reader utilising wells with untreated cells serving as control. […]
endpoint: inhibition at 30 µM (%)
Give bare numbers, in %.

Here is how some molecules turned out for inhibition at 30 µM.
molecule	target system	inhibition at 30 µM [%]
CCOP(=O)(OCC)c1cc2c(cc1OCc1cn(Cc3ccccc3)nn1)CC[C@@H]1[C@@H]2CC[C@@]2(C)C(=O)CC[C@@H]12 [Compound 13a]	MCF-7 cells	43.5
CC(C)(C)c1ccc(Cn2cc(COc3cc4c(cc3P(=O)(c3ccccc3)c3ccccc3)[C@H]3CC[C@@]5(C)C(=O)CC[C@H]5[C@@H]3CC4)nn2)cc1 [Compound 14b]	MCF-7 cells	90.7
CCOP(=O)(OCC)c1c(OCc2cn(Cc3ccc(C(C)(C)C)cc3)nn2)ccc2c1CC[C@@H]1[C@@H]2CC[C@@]2(C)C(=O)CC[C@@H]12 [Compound 15b]	MCF-7 cells	77.5
CCOP(=O)(OCC)c1c(OCc2cn(Cc3ccccc3)nn2)ccc2c1CC[C@@H]1[C@@H]2CC[C@@]2(C)C(=O)CC[C@@H]12 [Compound 15a]	MCF-7 cells	91
C[C@@]12CC[C@@H]3c4cc(P(=O)(c5ccccc5)c5ccccc5)c(OCc5cn(Cc6ccccc6)nn5)cc4CC[C@H]3[C@@H]1CCC2=O [Compound 14a]	MCF-7 cells	92.5

# input for lookup
IN: // query inhibition at 30 µM value for entry CCOP(=O)(OCC)c1cc2c(cc1OCc1cn(Cc3ccc(C(C)(C)C)cc3)nn1)CC[C@@H]1[C@@H]2CC[C@@]2(C)C(=O)CC[C@@H]12 [Compound 13b]
OUT: 95.5

* * *

System: A2780 cells
measurement description: MTT antiproliferative assay, A2780
Format: cell-based, human
run parameters: Homo sapiens, A2780, 72 h, read-out: Inhibition (%) ± SEM
endpoint: inhibition at 10 µM
Write the numeric value and follow it with the unit.

In the examples that follow, each entry is paired with its recorded inhibition at 10 µM.
compound	inhibition at 10 µM
C[C@@]12CC[C@@H]3c4cc(P(=O)(c5ccccc5)c5ccccc5)c(OCc5cn(Cc6ccccc6)nn5)cc4CC[C@H]3[C@@H]1CCC2=O [Compound 14a]	96%
CCOP(=O)(OCC)c1c(OCc2cn(Cc3ccc(C(C)(C)C)cc3)nn2)ccc2c1CC[C@@H]1[C@@H]2CC[C@@]2(C)C(=O)CC[C@@H]12 [Compound 15b]	46.2%
CCOP(=O)(OCC)c1cc2c(cc1OCc1cn(Cc3ccccc3)nn1)CC[C@@H]1[C@@H]2CC[C@@]2(C)C(=O)CC[C@@H]12 [Compound 13a]	29.5%
CCOP(=O)(OCC)c1c(OCc2cn(Cc3ccccc3)nn2)ccc2c1CC[C@@H]1[C@@H]2CC[C@@]2(C)C(=O)CC[C@@H]12 [Compound 15a]	79.9%
CC(C)(C)c1ccc(Cn2cc(COc3cc4c(cc3P(=O)(c3ccccc3)c3ccccc3)[C@H]3CC[C@@]5(C)C(=O)CC[C@H]5[C@@H]3CC4)nn2)cc1 [Compound 14b]	85.5%

Turning to the following compound.
IN: // lookup inhibition at 10 µM for CCOP(=O)(OCC)c1cc2c(cc1OCc1cn(Cc3ccc(C(C)(C)C)cc3)nn1)CC[C@@H]1[C@@H]2CC[C@@]2(C)C(=O)CC[C@@H]12 [Compound 13b]
OUT: 95.6%
